These entries and their values trace back to paper PMC12040169.

Items are presented alongside their recorded viability at 28.5 h, 10 µM.
protocol summary: in vitro
recorded conditions: human, hela cells, % viability
# unit: % | format: bare number

- O=C1/C(=C2/Sc3ccccc3N2CCCS(=O)(=O)O)SC(=S)N1c1ccccc1 [CBK260954G]: 94.5

Problem: Complete the entry with viability at 28.5 h, 10 µM for O=C(CCN1C(=O)c2ccc([N+](=O)[O-])cc2C1=O)Nc1ccccc1-c1ccccc1 [CBK265134]
Solution: 103

Problem: Complete the entry with viability at 28.5 h, 10 µM for COc1ccc(Br)cc1S(=O)(=O)NCC(=O)Nc1ccc(F)cc1 [CBK042223]
Solution: 98.1

Problem: Complete the entry with viability at 28.5 h, 10 µM for COc1cc(/C=C2\NC(=S)NC2=O)c(Cl)cc1O [CBK102003]
Solution: 65.5

Problem: Complete the entry with viability at 28.5 h, 10 µM for CCN1CCN(C(=O)Cc2ccc(OC)cc2)C(Cc2ccc(-c3ccncc3)cc2)C1=O (stereo not drawn) [CBK285804]
Solution: 106

Problem: Complete the entry with viability at 28.5 h, 10 µM for O=C(O)CCCc1[nH]nc(O)c1Cc1c(Cl)cccc1Cl [CBK081137]
Solution: 105

* * *

Items are presented alongside their recorded viability at 28.5 h, 10 µM.
protocol summary: in vitro
recorded conditions: human, hela cells, % viability
# unit: % | format: bare number

* Fc1ccccc1CSc1nc2ccc[nH]c-2n1 | 91.2
* Cc1cc(NC(=O)CN(C)CC(=O)Nc2ccc(Br)cc2C)no1 | 92.9
* CCCOc1cccc(C(=O)Nc2cccc(-c3nc4ncccc4o3)c2C)c1 | 97.9
* CN1C(=O)CC2(C1=O)C(=O)N(CC(=O)O)c1ccc(Cl)cc12 (stereo not shown) | 98.8
* CCCc1cc(CNC(=O)CN2CCCC(C)C2)on1 (stereo not shown) | 99.8

Problem: Complete the entry with viability at 28.5 h, 10 µM for "CS(=O)(=O)c1ccc(CNC(=O)C2(c3ccccc3)CCCC2)cc1"
Solution: 96.3

Problem: Complete the entry with viability at 28.5 h, 10 µM for "COc1ccc(S(=O)(=O)NCCCN2CCOCC2)c(C)c1C"
Solution: 110

Problem: Complete the entry with viability at 28.5 h, 10 µM for "CC(=O)N1CCN(C(=O)c2nn(-c3ccc(F)cc3)c3c2CCCCC3)CC1"
Solution: 107

Problem: Complete the entry with viability at 28.5 h, 10 µM for "CCOC(=O)c1cnn2c(O)cc(CN3CCc4ccccc4C3)nc12"
Solution: 97.2

Problem: Complete the entry with viability at 28.5 h, 10 µM for "CCCSc1nnc(NC(=O)c2nc(SC)ncc2Cl)s1"
Solution: 95.2

* * *

protocol summary: in vitro
recorded conditions: human, hela cells, % viability
value type: viability at 28.5 h, 10 µM (%)
# unit: % | format: bare number

Sample records with viability at 28.5 h, 10 µM:
* CN1CCC(NC(=O)c2cccc(OCC(=O)N3CCCCC3)c2)C1=O (stereo not shown) | 78.3
* O=C(O)C1CC=CCC1C(=O)Nc1ccc(CN2CCOCC2)cc1 (stereo not shown) | 107

Problem: Complete the entry with viability at 28.5 h, 10 µM for "O=C(Nc1cccc2ncccc12)c1ccnc(N2CCOCC2)c1"
Solution: 102

Problem: Complete the entry with viability at 28.5 h, 10 µM for "COc1cccc(/C=N\NC(=O)CN2CCN(Cc3ccccc3)CC2)c1O"
Solution: 97.1

* * *

protocol summary: in vitro
recorded conditions: human, hela cells, % viability
Items are presented alongside their recorded viability at 28.5 h, 10 µM.
# unit: % | format: bare number

Problem: Complete the entry with viability at 28.5 h, 10 µM for CC1(C)CC(=O)C2=C(C1)Nc1[nH][nH]c(=O)c1C2c1ccccn1 (stereo not shown)
Solution: 92

Problem: Complete the entry with viability at 28.5 h, 10 µM for O=C(Cn1cccn1)NC(Cc1ccsc1)c1ccccn1 (stereo not shown)
Solution: 92.8

Problem: Complete the entry with viability at 28.5 h, 10 µM for "COc1cccc(NC(=O)CSc2nnc(CC(C)C)n2C)c1"
Solution: 103

Problem: Complete the entry with viability at 28.5 h, 10 µM for "Cc1ccc(S(=O)(=O)N(CC(=O)Nc2cccnc2)c2ccc(C)c(C)c2)cc1"
Solution: 75.4

* * *

protocol summary: in vitro
recorded conditions: human, hela cells, % viability
value type: viability at 28.5 h, 10 µM (%)
# unit: % | format: bare number

Problem: Complete the entry with viability at 28.5 h, 10 µM for Cc1cnn(C)c1CN1CCC(C(N)=O)(N2CCCCC2)CC1 [CBK304400]
Solution: 89.4

Problem: Complete the entry with viability at 28.5 h, 10 µM for CCOC(=O)c1[nH]c2ccccc2c1NS(=O)(=O)c1cccc(Cl)c1C [CBK047423]
Solution: 88.9

Problem: Complete the entry with viability at 28.5 h, 10 µM for CCCc1ccc(S(=O)(=O)Nc2cccc(C(=O)OCC)c2)cc1 [CBK034332]
Solution: 92.5

* * *

Items are presented alongside their recorded viability at 28.5 h, 10 µM.
protocol summary: in vitro
recorded conditions: human, hela cells, % viability
# unit: % | format: bare number

Sample records with viability at 28.5 h, 10 µM:
- O=C(c1cnoc1-c1ccc([N+](=O)[O-])cc1)N1CCCC1: 107
- O=C(Nc1cccnc1)c1cc2cc(F)ccc2[nH]1: 93.2

Problem: Complete the entry with viability at 28.5 h, 10 µM for "CCOC(=O)c1cnn2c(O)cc(CN3CCc4sccc4C3)nc12"
Solution: 106

Problem: Complete the entry with viability at 28.5 h, 10 µM for "CC(C)N1CCC(CNC(=O)c2cc(C3CCCCC3)no2)CC1"
Solution: 98.5

Problem: Complete the entry with viability at 28.5 h, 10 µM for Cc1nn(CC(C)C(=O)NCCN2CCC(C)CC2)c(C)c1Cl (stereo not drawn)
Solution: 94.2

Problem: Complete the entry with viability at 28.5 h, 10 µM for "COCc1cc(C)nc(SCC(=O)O)c1C#N"
Solution: 88.2

Problem: Complete the entry with viability at 28.5 h, 10 µM for "CS(=O)(=O)N1CC2(CCN(Cc3ccc4nsnc4c3)CC2)c2ccccc21"
Solution: 92.9

Problem: Complete the entry with viability at 28.5 h, 10 µM for "Cn1ncnc1CCNC(=O)N1CCCN(Cc2cccs2)CC1"
Solution: 95.8

Problem: Complete the entry with viability at 28.5 h, 10 µM for "O=C1CCC(=O)N1CCn1c(=O)n(C(=O)CCCOc2ccc(Cl)cc2)c2ccccc21"
Solution: 93.4

Problem: Complete the entry with viability at 28.5 h, 10 µM for Cc1cn(C2CC(O)C(C3N(c4ccccc4)CCN3c3ccccc3)O2)c(=O)[nH]c1=O (stereo not drawn)
Solution: 99.2

Problem: Complete the entry with viability at 28.5 h, 10 µM for "CCn1cc(CN2CCCN(C(=O)c3cc(C)on3)CC2)cn1"
Solution: 88.1

Problem: Complete the entry with viability at 28.5 h, 10 µM for "NC1=NN(c2ccccc2)C(=O)C1"
Solution: 97.3

Problem: Complete the entry with viability at 28.5 h, 10 µM for "Cc1ccc2nc(-c3ccccc3)c(C)c(C(=O)O)c2c1"
Solution: 87.6

Problem: Complete the entry with viability at 28.5 h, 10 µM for COc1ccc2c(=O)c3c(oc2c1)C(=O)N(CCN(C)C)C3c1ccccn1 (stereo not drawn)
Solution: 98.3

Problem: Complete the entry with viability at 28.5 h, 10 µM for "N#C/C(=C\c1cn(-c2ccccc2)nc1-c1cccc(S(=O)(=O)N2CCCCCC2)c1)c1nc2ccccc2c(=O)[nH]1"
Solution: 103

* * *

protocol summary: in vitro
recorded conditions: human, hela cells, % viability
value type: viability at 28.5 h, 10 µM (%)
# unit: % | format: bare number

- CC(=O)c1sc2nc(C)cc(C)c2c1N: 90.5
- OCCn1c(COc2cccc3cccnc23)nc2ccccc21: 79.5
- OC(CNCCc1ccccc1)COc1c(Br)cccc1Br (centres unmarked): 94
- COC(=O)c1cc(-c2c[nH]c3ccccc23)[nH]n1: 92.5
- CCN(CC)C(=O)c1ccc2[nH]ccc2c1: 97.1
- N#C/C(=C/c1ccccc1OCc1cccc([N+](=O)[O-])c1)c1ccc(C(=O)O)cc1: 96.2
- CCN(Cc1ccc(C#N)cc1F)C(=O)Nc1cnn(CCOC)c1: 91.9
- CC(C)NC(=O)[C@H]1CN2CCC1C[C@@H]2Cn1cc(C2(O)CCCCC2)nn1 (some centres unmarked): 99.3
- O=C(CCn1cnc2cc(-c3noc(-c4cnccn4)n3)ccc21)N1CCCC1: 104
- Cc1ccc(Nc2nc(N(C)C)nc3[nH]ncc23)cc1: 108

# next compound below
Problem: Complete the entry with viability at 28.5 h, 10 µM for "CN1CCN(NC(=O)COc2ccc(-c3ccccc3)cc2)CC1"
Solution: 89.8
